System: Nakaseomyces glabratus
Experiment: Compound was evaluated for antifungal activity as minimum cell growth inhibition against Candida glabrata - 2375E
Type: functional
Hi there, I'd appreciate the recorded MIC for every entry that follows.
I only need the number, in µg/mL, no unit after it.

## Task Given the entry COC[C@H]1O[C@@H](OCC23C[C@@H]4[C@H](C)CC[C@H]4C4(C=O)CC2C=C(C(C)C)C34C(=O)O)[C@H]2O[C@H]2[C@@H]1OC (stereo not given in full) , what MIC was observed with Nakaseomyces glabratus?
## Result 62

## Task Given the entry CO[C@H]1[C@@H]2O[C@@H]2[C@@H](OCC23C[C@@H]4[C@H](C)CC[C@H]4C4(C=O)CC2C=C(C(C)C)C34C(=O)O)O[C@@H]1C (stereo not given in full) , what MIC was observed with Nakaseomyces glabratus?
## Result 31

## Task Given the entry CO[C@H]1[C@@H]2O[C@@H]2[C@H](OCC23C[C@@H]4[C@H](C)CC[C@H]4C4(C=O)CC2C=C(C(C)C)C34C(=O)O)O[C@@H]1C (stereo not given in full) , what MIC was observed with Nakaseomyces glabratus?
## Result 16

* * *

Test system: Candida albicans
Test: Compound was evaluated for antifungal activity as minimum cell growth inhibition against Candida albicans - 2005
Type: functional
Hi there, I'd appreciate the recorded MIC for every entry that follows.
I only need the number, in µg/mL, no unit after it.

## Task Request the reported MIC associated with CO[C@H]1[C@@H]2S[C@@H]2[C@H](OCC23C[C@@H]4[C@H](C)CC[C@H]4C4(C=O)CC2C=C(C(C)C)C34C(=O)O)O[C@@H]1C (stereo partly drawn)
## Result 0.03

## Task Request the reported MIC associated with CO[C@H]1[C@H]2O[C@H]2[C@H](OCC23C[C@@H]4[C@H](C)CC[C@H]4C4(C=O)CC2C=C(C(C)C)C34C(=O)O)O[C@@H]1C (stereo partly drawn)
## Result 0.25

## Task Request the reported MIC associated with COC[C@H]1O[C@@H](OCC23C[C@@H]4[C@H](C)CC[C@H]4C4(C=O)CC2C=C(C(C)C)C34C(=O)O)[C@H]2O[C@H]2[C@@H]1OC (stereo partly drawn)
## Result 0.06

* * *

System: Nakaseomyces glabratus
Assay: Compound was evaluated for antifungal activity as minimum cell growth inhibition against Candida glabrata - 2375E
Format: functional
Hi there, I'd appreciate the recorded MIC for every entry that follows.
I only need the number, in µg/mL, no unit after it.

## Task Request the reported MIC associated with CO[C@H]1[C@H]2O[C@H]2[C@@H](OCC23C[C@@H]4[C@H](C)CC[C@H]4C4(C=O)CC2C=C(C(C)C)C34C(=O)O)O[C@@H]1C (stereo partly drawn)
## Result 31

## Task Request the reported MIC associated with CO[C@H]1[C@@H]2S[C@@H]2[C@H](OCC23C[C@@H]4[C@H](C)CC[C@H]4C4(C=O)CC2C=C(C(C)C)C34C(=O)O)O[C@@H]1C (stereo partly drawn)
## Result 16

## Task Request the reported MIC associated with CO[C@H]1[C@H]2O[C@H]2[C@H](OCC23C[C@@H]4[C@H](C)CC[C@H]4C4(C=O)CC2C=C(C(C)C)C34C(=O)O)O[C@@H]1C (stereo partly drawn)
## Result 125

* * *

Tested on: Candida tropicalis
Experiment: Compound was evaluated for antifungal activity as minimum cell growth inhibition against Candida tropicalis - 2808
Assay type: functional
MEASURED_ATTRIBUTE: log10 of MIC (log10 of the value in µg/mL)
Remember, log10 of MIC, in µg/mL.

## Task Request the reported log10 of MIC associated with COC[C@H]1O[C@@H](OCC23C[C@@H]4[C@H](C)CC[C@H]4C4(C=O)CC2C=C(C(C)C)C34C(=O)O)[C@H]2O[C@H]2[C@@H]1OC (stereo partly drawn)
## Result 0.60

## Task Request the reported log10 of MIC associated with C/C=C/C=C(/O[C@H]1[C@H](O)[C@H](OCC23C[C@@H]4[C@H](C)CC[C@H]4C4(C=O)CC2C=C(C(C)C)C34C(=O)O)O[C@H](C)[C@H]1O)C(=O)C(CC)CC (stereo partly drawn)
## Result -1.22

## Task Request the reported log10 of MIC associated with CO[C@H]1[C@H]2O[C@H]2[C@H](OCC23C[C@@H]4[C@H](C)CC[C@H]4C4(C=O)CC2C=C(C(C)C)C34C(=O)O)O[C@@H]1C (stereo partly drawn)
## Result 0.60

## Task Request the reported log10 of MIC associated with CO[C@H]1[C@@H]2O[C@@H]2[C@@H](OCC23C[C@@H]4[C@H](C)CC[C@H]4C4(C=O)CC2C=C(C(C)C)C34C(=O)O)O[C@@H]1C (stereo partly drawn)
## Result 1.49

## Task Request the reported log10 of MIC associated with CO[C@H]1[C@@H]2O[C@@H]2[C@H](OCC23C[C@@H]4[C@H](C)CC[C@H]4C4(C=O)CC2C=C(C(C)C)C34C(=O)O)O[C@@H]1CO (stereo partly drawn)
## Result 1.49

## Task Request the reported log10 of MIC associated with CO[C@H]1[C@@H]2S[C@@H]2[C@H](OCC23C[C@@H]4[C@H](C)CC[C@H]4C4(C=O)CC2C=C(C(C)C)C34C(=O)O)O[C@@H]1C (stereo partly drawn)
## Result -0.30

## Task Request the reported log10 of MIC associated with CO[C@H]1[C@@H]2O[C@@H]2[C@H](OCC23C[C@@H]4[C@H](C)CC[C@H]4C4(C=O)CC2C=C(C(C)C)C34C(=O)O)O[C@@H]1C (stereo partly drawn)
## Result -0.60
